# Tested on: SF-295 CNS
# assay_text: NCI tumour cell line growth inhibition, 48 h
parameter_measured: TGI

Record excerpt, results attached:
compound: O=[N+]([O-])c1ccc2nc(N/N=C/c3ccc(O)cc3)sc2c1
TGI: > 100 µM
//
compound: O=C(Nc1cc(C(F)(F)F)ccc1Cl)C(=O)C(C(=O)c1ccc2ccccc2c1)C1OC(=O)c2ccccc21 (stereo not given)
TGI: 27.6 µM
//
compound: CC(C)CCNC(=O)c1ccc(CNC(=O)/C=C/c2ccc(-c3ccccc3[N+](=O)[O-])o2)cc1
TGI: > 100 µM
//
compound: OC[C@H]1CC(c2nn[nH]n2)[C@H](O)[C@@H]1O (stereo not given in full)
TGI: > 100 µM

Give the measured TGI of Cc1cc2c3c(ccc4ncc(c43)CN2c2ccc(NS(C)(=O)=O)cc2)[nH]1 .
> 100 µM

Give the measured TGI of CCCCc1ccc(Nc2nc(Cl)c3[nH]cnc3n2)cc1 .
34.6 µM

Give the measured TGI of Cc1ccc(N2C(=O)/C(=c3\s/c(=C(/N)O)c(=N)n3-c3ccccc3)SC2=S)cc1 .
> 100 µM

Give the measured TGI of COC1OC(C)C(OC(=O)C(C)(C)C)C(C)(O)C1O (stereo not given) .
> 100 µM

Give the measured TGI of O=C=Nc1ccc(Cc2ccc(N=C=O)cc2)cc1 (tested in a mixture with another compound) .
> 25 µg/mL

Give the measured TGI of CC1C(c2ccccc2O)c2cc3c(cc2OC1N1CCCC1)OCO3 (stereo not given) .
74.9 µM

Give the measured TGI of COc1ccc(/C=N/NC(=O)O)cc1 .
> 100 µM

Give the measured TGI of COC(=O)c1c2c(c(C)[n+]([O-])c1C)C(=O)C(NCc1ccc(F)c(Cl)c1)=CC2=O .
4.26 µM

###

# GI50 per entry
# Tested on: NCI-H522 lung
# assay_text: NCI tumour cell line growth inhibition, 48 h

Record excerpt, results attached:
compound: COc1cc(/C=C2\C(=O)N(c3c(Cl)cccc3Cl)c3ccccc32)cc(OC)c1O
measured_on: NCI-H522 lung
GI50: 0.501 µM

compound: COCCOC(C)C(/C=N/NC(N)=S)=N/NC(N)=S (stereo not given)
measured_on: NCI-H522 lung
GI50: > 100 µM

compound: COc1ccc(OC)c(-c2nc3sccn3c2/C=C2/C(=O)Nc3ccccc32)c1
measured_on: NCI-H522 lung
GI50: 0.294 µM

Give the measured GI50 of Cc1ccnc2c1NC(=O)c1cccnc1N2C1CC1 .
> 100 µM

Give the measured GI50 of C[C@]12CC[C@H]3[C@@H](C[C@@H]4SC(Nc5cccc(F)c5)=N[C@@]45CC(=O)CC[C@]35C)[C@@H]1CCC2=O .
1.63 µM

###

# Test system: DU-145 prostate
# assay_text: NCI tumour cell line growth inhibition, 48 h
# TGI per entry
Response body: numeric value in µM, unit text excluded.

Record excerpt, results attached:
compound: CN(C)CCCC1(c2ccc(F)cc2)OCc2cc(-c3ccc4cc[nH]c4c3)ccc21 (configuration not stated)
measured_on: DU-145 prostate
reported_result: 3.46
//
compound: N#Cc1ccc(-n2cnc(NC(=O)[C@H]3CCN(C#N)C3)c2)cc1
measured_on: DU-145 prostate
reported_result: 49.4
//
compound: C[C@]12CC[C@H]3[C@@H](C[C@@H]4SC(Nc5cccc(F)c5)=N[C@@]45CC(=O)CC[C@]35C)[C@@H]1CCC2=O
measured_on: DU-145 prostate
reported_result: 4.87
//
compound: Cc1oc2c(c1C(=O)c1ccccc1)C(=O)c1ccccc1C2=O
measured_on: DU-145 prostate
reported_result: 24.6
//
compound: O=[N+]([O-])c1ccc2nc(N/N=C/c3ccc(O)cc3)sc2c1
measured_on: DU-145 prostate
reported_result: 38.1
//
compound: COc1ccc2[nH]cc(/C=C3\C(=O)Nc4ccccc43)c2c1
measured_on: DU-145 prostate
reported_result: 22.3
//
compound: Cc1cc(N2CCN(C)CC2)nc(NC2CCCC(Nc3ccnc4cc(Cl)ccc34)C2)n1 (configuration not stated)
measured_on: DU-145 prostate
reported_result: 12.7
//
compound: CCOC(=O)C(=Cc1ccc(Br)cc1)C(=O)OCC
measured_on: DU-145 prostate
reported_result: 3.07
//
compound: COc1cc(/C=C2\C(=O)N(c3c(Cl)cccc3Cl)c3ccccc32)cc(OC)c1O
measured_on: DU-145 prostate
reported_result: 6.13
//
compound: O=C1Nc2ccccc2SC1C1SC(=S)N(Cc2ccccc2)C1=O (configuration not stated)
measured_on: DU-145 prostate
reported_result: 5.58

Give the measured TGI of O=C1C(Nc2ccccn2)=C(I)C(=O)c2ncccc21 .
1.42

Give the measured TGI of C=C1C(=O)C=C2C=C3C(=O)C(C)(C)C[C@]3(O)C12C (some centres not stated) .
33.9

Give the measured TGI of CCCCc1ccc(Nc2nc(Cl)c3[nH]cnc3n2)cc1 .
61.8

Value source: PubChem BioAssay (NCI)
